measurement-label: melting point

Worked examples follow.
| compound | melting point |
| --- | --- |
| Oc1ccc2c(c1)CCc1c-2cc2ccc(O)cc2c1C1CCCC1 | 233 to 235 °C |
| CCCc1c2c(c(CCC)c3ccc(O)cc13)-c1ccc(O)cc1C2 | 250 °C |
| Oc1ccc2c(c1)Cc1c-2cc2ccc(O)cc2c1C=C(F)F | 211 to 212 °C |

Here's the next entry for you.
Could you share which melting point value was measured for Oc1ccc(-c2c3c(cc4ccc(O)cc24)-c2ccc(O)cc2CC3)cc1 [Compound 16a] ?
272 °C

---

Target: human estrogen receptor β receptor (hERβ) (Homo sapiens)
Construct: expressed in transfected cells; host or cells: Chinese hamster ovary (CHO) cells, stably co-transfected with hERβ, rat oxytocin promoter and luciferase reporter
Sequence (Q92731 whole entry): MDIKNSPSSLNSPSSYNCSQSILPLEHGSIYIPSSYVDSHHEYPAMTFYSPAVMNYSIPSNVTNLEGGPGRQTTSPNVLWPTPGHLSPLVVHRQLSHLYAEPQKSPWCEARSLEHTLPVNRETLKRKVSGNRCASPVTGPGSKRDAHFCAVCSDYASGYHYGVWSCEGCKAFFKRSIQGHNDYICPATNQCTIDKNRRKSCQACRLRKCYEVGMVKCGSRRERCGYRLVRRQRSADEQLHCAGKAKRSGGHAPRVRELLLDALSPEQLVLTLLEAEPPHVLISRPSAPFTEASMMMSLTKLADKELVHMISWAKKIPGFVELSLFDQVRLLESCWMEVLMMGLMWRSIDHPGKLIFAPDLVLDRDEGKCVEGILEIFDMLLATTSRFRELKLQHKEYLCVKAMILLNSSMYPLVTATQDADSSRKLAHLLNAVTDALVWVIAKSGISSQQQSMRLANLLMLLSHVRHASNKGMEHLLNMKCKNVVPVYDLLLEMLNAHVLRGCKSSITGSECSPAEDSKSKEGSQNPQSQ
Test: competitive binding to cytoplasmic human estrogen receptor β from recombinant CHO cells
Details: % relative to 17β-estradiol; cytosol of recombinant CHO cells; Table 1
Description: Compounds are tested for their estrogen receptor activity in a binding assay and in a transactivation assay. […]
measurement-label: ERβ Binding (Potency Binding (ERβ))

| compound | reported-value |
| --- | --- |
| Oc1ccc2c(c1)Cc1c-2cc2ccc(O)cc2c1Br [Compound 67b] | +++ (>10%) |
| Oc1ccc2c(c1)Cc1c-2cc2ccc(O)cc2c1I [Compound 67c] | +++ (>10%) |
| Oc1ccc2c(c1)Cc1cc3cc(O)ccc3c(Cl)c1-2 | +++ (>10%) |
| Oc1ccc2c(c1)Cc1cc3ccc(O)cc3cc1-2 [Compound 25, 2,7-dihydroxy-11H-benzo[b]fluorene] | ++ (between 2-10%) |
| COc1ccc2c(c1)Cc1c-2nc2ccc(OC)cc2c1Cl | ++ (between 2-10%) |

What ERβ Binding (Potency Binding (ERβ)) value was documented for this compound, Oc1ccc2c(c1)Cc1cc3cc(O)ccc3cc1-2 [Compound 69, 2,8-dihydroxy-11H-benzo[b]fluorene] ?
++ (between 2-10%)

Request the reported ERβ Binding (Potency Binding (ERβ)) associated with Oc1ccc2c(c1)Cc1c-2cc2ccc(O)cc2c1Cl [Compound 67a]
+++ (>10%)

Which ERβ Binding (Potency Binding (ERβ)) is reported for this compound? Cc1c2c(cc3ccc(O)cc13)-c1ccc(O)cc1C2 [Compound 67d]
++ (between 2-10%)

Recorded ERβ Binding (Potency Binding (ERβ)) of Oc1ccc2c(c1)Cc1c-2cc2ccc(O)cc2c1C(F)(F)F [Compound 67e] , please.
+++ (>10%)

Given the entry `COc1ccc2c(c1)Cc1c-2nc2ccc(OC)cc2c1Br` , report its measured ERβ Binding (Potency Binding (ERβ)).
++ (between 2-10%)

Requested field: ERβ Binding (Potency Binding (ERβ)). Item: `Oc1ccc2c(c1)Cc1c-2nc2ccc(O)cc2c1-c1ccccc1`
++ (between 2-10%)
